# ASSAY COMMENT: MTT cell viability assay and cell morphology
# Assay type: cell-based, murine
# MEASUREMENT SETUP: mouse, B16F10 murine melanoma cells, B16F10, 24 µg/ml, read-out: toxic effect in MTT cell viability assay, compared to control normalized to 100%
# Protocol: To test the safety level of 5c compound, MTT assay (3-(4,5-dimethylthiazol-2-yl)-2,5-diphenyltetrazolium Bromide) was performed. The murine melanoma (B16F10) cells (1.5 × 10^5 cells/ml) were seeded in 24 well plates (SPL Korea) with DMEM medium at 37 °C and 5% CO2 incubator. […] The MTT assay was then conducted, and results were calculated in percentage of control. […]
MEASUREMENT TYPE: viability at 24 h, 24 µg/ml (%)
Just the number please, in %, no unit attached.

Item CC(=O)c1ccc(NC(=O)COC(=O)/C=C/c2ccc(O)cc2O)cc1 [Compound 5c] has what recorded viability at 24 h, 24 µg/ml? 33.7

----------
# EXPERIMENTAL SYSTEM: mushroom tyrosinase (EC 1.14.18.1) (Agaricus bisporus)
# Construct: purchased Sigma Chemical Co., ST; Louis, MO
# ASSAY COMMENT: Mushroom tyrosinase inhibition assay (L-DOPA, dopachrome absorbance)
# Assay type: biochemical, Agaricusbisporus
MEASUREMENT TYPE: pIC50
Schema: pIC50 number; meaning minus log10 of the concentration expressed in molar units.

[
  {
    "STRUCTURE": "CC(=O)c1ccc(NC(=O)CCl)cc1",
    "pIC50": 4.26
  },
  {
    "STRUCTURE": "CC(=O)c1ccc(NC(=O)COC(=O)c2ccc(O)cc2O)cc1",
    "pIC50": 3.84
  }
]

Item CC(=O)c1ccc(NC(=O)COC(=O)C=Cc2ccccc2)cc1 has what recorded pIC50? 4.20

----------
# EXPERIMENTAL SYSTEM: mushroom tyrosinase (EC 1.14.18.1) (Agaricus bisporus)
# Construct: purchased Sigma Chemical Co., ST; Louis, MO
# ASSAY COMMENT: Mushroom tyrosinase inhibition assay (L-DOPA, dopachrome absorbance)
# Type: biochemical, Agaricusbisporus
# MEASUREMENT SETUP: L-DOPA substrate, pH 6.8, 25 °C; read-out: Mushroom tyrosinase inhibition IC50
# reported IC50; entries follow

[
  {
    "STRUCTURE": "CC(=O)c1ccc(NC(=O)COC(=O)/C=C/c2ccc(Cl)cc2)cc1",
    "IC50": "8.26 µM"
  }
]

Next compound, IC50 to be filled in.
Item CC(=O)c1ccc(NC(=O)COC(=O)/C=C/c2ccc(O)cc2O)cc1 has what recorded IC50? 0.0089 µM

----------
# EXPERIMENTAL SYSTEM: mushroom tyrosinase (Agaricus bisporus, UniProt C7FF04)
# Sequence (C7FF04 2-392): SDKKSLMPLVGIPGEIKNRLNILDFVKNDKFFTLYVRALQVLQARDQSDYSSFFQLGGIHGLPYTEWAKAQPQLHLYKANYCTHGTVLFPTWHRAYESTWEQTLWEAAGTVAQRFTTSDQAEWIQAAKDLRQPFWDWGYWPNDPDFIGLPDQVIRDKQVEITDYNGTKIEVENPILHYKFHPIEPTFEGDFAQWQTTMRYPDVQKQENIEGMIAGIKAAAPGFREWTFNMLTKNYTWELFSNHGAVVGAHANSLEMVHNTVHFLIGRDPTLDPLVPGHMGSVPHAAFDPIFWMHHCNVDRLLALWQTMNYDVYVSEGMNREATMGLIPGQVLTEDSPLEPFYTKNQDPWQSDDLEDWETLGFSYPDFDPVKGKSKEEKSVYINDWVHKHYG
MEASUREMENT TYPE: Ki (nM)
Just the number please, in nM, no unit attached.

Test system mushroom tyrosinase (Agaricus bisporus, UniProt C7FF04); read-out Ki; what value for CC(=O)c1ccc(NC(=O)COC(=O)/C=C/c2ccc(O)cc2O)cc1 [Compound 5c] ? 10

----------
# EXPERIMENTAL SYSTEM: mushroom tyrosinase (EC 1.14.18.1) (Agaricus bisporus, UniProt C7FF04)
# Construct: purchased Sigma Chemical Co., ST; Louis, MO
# Sequence (C7FF04 2-392): as above
# ASSAY COMMENT: Mushroom tyrosinase inhibition assay (L-DOPA, dopachrome absorbance)
# Assay type: biochemical, Agaricusbisporus
Sorting guide: entries reporting IC50 beneath 300 µM go in the rule met pile, the rest go in the rule not met pile.

Worked examples, 4 molecules total:
[
  {
    "MOLECULE": "CC(=O)c1ccc(NC(=O)COC(=O)c2cccc(O)c2)cc1 [Compound 3a]",
    "CAT": "rule not met"
  },
  {
    "MOLECULE": "CC(=O)c1ccc(NC(=O)COC(=O)c2cc(O)cc(O)c2)cc1 [Compound 3e]",
    "CAT": "rule met"
  },
  {
    "MOLECULE": "CC(=O)c1ccc(NC(=O)COC(=O)/C=C/c2ccc(O)cc2)cc1 [Compound 5b]",
    "CAT": "rule met"
  },
  {
    "MOLECULE": "CC(=O)c1ccc(NC(=O)COC(=O)c2ccc(O)cc2)cc1 [Compound 3b]",
    "CAT": "rule not met"
  }
]

In plain terms, does CC(=O)c1ccc(NC(=O)COC(=O)c2ccc(O)c(O)c2)cc1 [Compound 3d] come in under 300 µM for IC50? rule met
